- Measured target: T1, Murine RANK-Fc (mouse, UniProt O35305 31-214)
- T1 sequence (looked up): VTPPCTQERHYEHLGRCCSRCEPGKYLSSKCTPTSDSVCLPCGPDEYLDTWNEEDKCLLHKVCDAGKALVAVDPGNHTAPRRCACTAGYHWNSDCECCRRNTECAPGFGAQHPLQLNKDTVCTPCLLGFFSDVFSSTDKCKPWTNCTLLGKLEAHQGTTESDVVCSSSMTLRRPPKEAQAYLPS
- Test description: SPR
kon listing for selected binders.
Write down the numeric answer in M⁻¹ s⁻¹ and omit the unit.

In the examples that follow, each entry is paired with its recorded kon.
[
  {
    "Binder": "RANKL_Q236D (ligand, mouse, UniProt O35235 160-316, looked up) EAQPFAHLTINAASIPSGSHKVTLSSWYHDRGWAKISNMTLSNGKLRVNQDGFYYLYANICFRHHETSGSVPTDYLDLMVYVVKTSIKIPSSHNLMKGGSTKNWSGNSEFHFYSINVGGFFKLRAGEEISIQVSNPSLLDPDQDATYFGAFKVQDID",
    "Measured property": "kon",
    "Observed result": "6.4e+06"
  },
  {
    "Binder": "RANKL_Q236K (ligand, mouse, UniProt O35235 160-316, looked up) EAQPFAHLTINAASIPSGSHKVTLSSWYHDRGWAKISNMTLSNGKLRVNQDGFYYLYANICFRHHETSGSVPTDYLKLMVYVVKTSIKIPSSHNLMKGGSTKNWSGNSEFHFYSINVGGFFKLRAGEEISIQVSNPSLLDPDQDATYFGAFKVQDID",
    "Measured property": "kon",
    "Observed result": "8e+06"
  },
  {
    "Binder": "RANKL_Q236N (ligand, mouse, UniProt O35235 160-316, looked up) EAQPFAHLTINAASIPSGSHKVTLSSWYHDRGWAKISNMTLSNGKLRVNQDGFYYLYANICFRHHETSGSVPTDYLNLMVYVVKTSIKIPSSHNLMKGGSTKNWSGNSEFHFYSINVGGFFKLRAGEEISIQVSNPSLLDPDQDATYFGAFKVQDID",
    "Measured property": "kon",
    "Observed result": "7.9e+06"
  },
  {
    "Binder": "RANKL_Q236P (ligand, mouse, UniProt O35235 160-316, looked up) EAQPFAHLTINAASIPSGSHKVTLSSWYHDRGWAKISNMTLSNGKLRVNQDGFYYLYANICFRHHETSGSVPTDYLPLMVYVVKTSIKIPSSHNLMKGGSTKNWSGNSEFHFYSINVGGFFKLRAGEEISIQVSNPSLLDPDQDATYFGAFKVQDID",
    "Measured property": "kon",
    "Observed result": "6.1e+06"
  },
  {
    "Binder": "RANKL_Q236A (ligand, mouse, UniProt O35235 160-316, looked up) EAQPFAHLTINAASIPSGSHKVTLSSWYHDRGWAKISNMTLSNGKLRVNQDGFYYLYANICFRHHETSGSVPTDYLALMVYVVKTSIKIPSSHNLMKGGSTKNWSGNSEFHFYSINVGGFFKLRAGEEISIQVSNPSLLDPDQDATYFGAFKVQDID",
    "Measured property": "kon",
    "Observed result": "8.9e+06"
  },
  {
    "Binder": "RANKL_Q236H (ligand, mouse, UniProt O35235 160-316, looked up) EAQPFAHLTINAASIPSGSHKVTLSSWYHDRGWAKISNMTLSNGKLRVNQDGFYYLYANICFRHHETSGSVPTDYLHLMVYVVKTSIKIPSSHNLMKGGSTKNWSGNSEFHFYSINVGGFFKLRAGEEISIQVSNPSLLDPDQDATYFGAFKVQDID",
    "Measured property": "kon",
    "Observed result": "6.7e+06"
  },
  {
    "Binder": "RANKL_WT (mouse soluble RANKL, aa 160–316) (ligand, UniProt O35235 160-316, looked up) EAQPFAHLTINAASIPSGSHKVTLSSWYHDRGWAKISNMTLSNGKLRVNQDGFYYLYANICFRHHETSGSVPTDYLQLMVYVVKTSIKIPSSHNLMKGGSTKNWSGNSEFHFYSINVGGFFKLRAGEEISIQVSNPSLLDPDQDATYFGAFKVQDID",
    "Measured property": "kon",
    "Observed result": "8.4e+06"
  }
]

Entry RANKL_Q236S (ligand, mouse, UniProt O35235 160-316, looked up) EAQPFAHLTINAASIPSGSHKVTLSSWYHDRGWAKISNMTLSNGKLRVNQDGFYYLYANICFRHHETSGSVPTDYLSLMVYVVKTSIKIPSSHNLMKGGSTKNWSGNSEFHFYSINVGGFFKLRAGEEISIQVSNPSLLDPDQDATYFGAFKVQDID has what kon?
7e+06
